Cited source: ChEMBL document CHEMBL1201862

Tested on: MDA-MB-231
Experiment: NCI tumour cell line growth inhibition, 48 h
The source made the active and inactive calls. No stated cut-off is given here; in the data, active = GI50 up to about 1.1 µM and inactive = higher.
The reply should be one of these categories: active, inactive

Query: What classification did O=C(CNc1ccccn1)Nn1cnc2ccc(S(=O)(=O)Nc3ccccn3)cc2c1=O end up with in this test?
Reply: inactive

Query: // outcome(item) with item = CCn1c2ccccc2c2cc(NC(=O)c3c(C)[nH]c(=O)[nH]c3=S)ccc21
Reply: inactive

Query: I'd appreciate the recorded outcome for O=C(O)c1cc(N(Cc2ccccc2O)Cc2cc(O)ccc2O)ccc1O [LAVENDUSTIN A] from this test.
Reply: inactive

Query: Identify the outcome logged in this assay for the compound shown: C#CCn1ncc2c(SCc3ccccc3)ncnc21
Reply: inactive

Query: Answer briefly: the call reported for O=C(c1ccccc1)n1c(Cc2ccccc2)nc2cc(C34CC5CC(CC(C5)C3)C4)ccc21 in this assay.
Reply: inactive

Query: Hey, what did the test say about Cc1cc(C2(c3cc(C)c(O)c4ncccc34)OC(=O)c3ccccc32)c2cccnc2c1O ?
Reply: active

Query: Which outcome was entered for the compound Cc1cccc(NC(=O)/C=C/c2ccc([N+](=O)[O-])cc2)c1 in this test?
Reply: inactive

Query: Which result was noted for this compound in the test: O=C(O)C[S+]([O-])c1ccc2c3c(cccc13)C(=O)c1ccccc1-2 (stereo not given)
Reply: inactive

Query: Please share the test call associated with COc1ccccc1N=C(S)Nc1ccccn1 .
Reply: inactive

Query: GET /call?item= CCCCC(=O)OC[n+]1ccc2c(C)c3[nH]c4ccccc4c3c(C)c2c1 returns the recorded outcome of this test.
Reply: active

Query: Hey, what did the test say about CC(=O)c1ccc(Nc2c3ccccc3nc3occc23)cc1 ?
Reply: active

Query: Any idea what this test logged for NC(=O)C(C(N)=O)=C(O)/C(O)=C/C(=O)c1ccccc1 ?
Reply: inactive

Query: What call does the record list for COCCN(C(=O)c1ccccc1)C1CCC2(SCCS2)c2[nH]c3ccccc3c21 (stereo not given) ?
Reply: inactive

Query: Hi, sorry to bother you, what did the test record for Nc1nc(N)c2nc(CNc3ccc(C(=O)NC(CCCNC(=O)c4ccccc4C(=O)O)C(=O)O)cc3)cnc2n1 (stereo not given) ?
Reply: inactive

Query: What outcome does the record of this test show for CC(=C\c1ccccc1)/C=C(\C#N)C(N)=O ?
Reply: inactive

Query: Record lookup: outcome of this test for Cc1cn(C2CC(O)C(Cn3nncc3Cn3ccc(=O)[nH]c3=O)O2)c(=O)[nH]c1=O (stereo not given) ?
Reply: inactive

Query: Check the results log: what was the call for c1ccc2c(-c3cnc(-c4c[nH]c5ccccc45)cn3)c[nH]c2c1 ?
Reply: inactive

Query: Could you kindly confirm the outcome this assay logged for Oc1cccc2ccc(Br)nc12 ?
Reply: inactive

Query: Hello, I am checking results. What call was entered for CN(C)c1ccc(/C=C2\C[C@H]3[C@@H]4CCc5cc(O)ccc5[C@H]4CC[C@]3(C)C2=O)cc1 ?
Reply: inactive

Query: Which outcome was entered for the compound COC(=O)[C@H](Cc1ccccc1)NC(=O)[C@H](Cc1ccccc1)NC(=O)[C@@H]1CCCN1C(=O)N[C@H]1C2C=CC(C2)C1C(=O)N1CCC[C@H]1C(=O)N[C@@H](C)C(=O)N[C@H](C(=O)OC)C(C)C (stereo not given in full) in this test?
Reply: inactive

###

Test system: OVCAR-4
Experiment: NCI tumour cell line growth inhibition, 48 h
Active and inactive are the calls of the source. Cut-off read from the data, not from the text of the source: active = GI50 up to about 1.1 µM and inactive = higher.
GI50: recorded values

Past entries and their recorded results:
{"compound": "CC12N=NNC1C(=O)NC2=O (stereo unspecified)", "GI50": "> 100 µM (inactive)"}
{"compound": "O=C(O)CCc1nc(-c2ccccc2-n2cccc2)no1", "GI50": "11.8 µM (inactive)"}
{"compound": "CCOC(=O)c1c(C)n(-c2ccc(C)cc2)c2c1cc(O)c1[nH]c3c(c12)CCCC3", "GI50": "13.7 µM (inactive)"}

Query: Request the reported GI50 associated with [N-]=[N+]=Nc1ccccc1-[n+]1noc([O-])c1Br
Reply: > 100 µM (inactive)

Query: // returns reported GI50 for input CC(C)CC(NC=O)C(=O)NC(Cc1ccccc1)NC(=O)CNC(=O)C(C)NC(=O)OC(C)(C)C (stereo unspecified)
Reply: > 100 µM (inactive)

Query: Need GI50 of CCCOC(=O)C1C2CCC(O2)C1C(=O)O (stereo unspecified) , thanks.
Reply: > 100 µM (inactive)
